The measured values listed here are drawn from patent US12384743B2.

test: Aqueous solubility of Form B in different pH buffers; type: physicochemical; conditions: aqueous buffer, thermodynamic from solid; Buffer solution pH 7.4; pH (buffer) measured starting conditions 7.4; pH (buffered sample) 6.4; read-out: Solubility (mg/ml mean of triplicates)
Counter-ions that a name gives are not always drawn.
parameter_measured: solubility (mg/mL)
State just the number; it will be interpreted in mg/mL.

Q: Look up solubility: NC(=O)OC[C@H](N)Cc1ccccc1 [Form B, hydrochloride]
A: 746

###

test: Aqueous solubility of Form B in different pH buffers; format: physicochemical; conditions: buffer solution, aqueous buffer, thermodynamic from solid; pH 1-6.5; read-out: solubility in buffer solution
Counter-ions that a name gives are not always drawn.
parameter_measured: solubility

Q: Value lookup for solubility; key = NC(=O)OC[C@H](N)Cc1ccccc1 [Form B, hydrochloride]
A: 700 to 750 mg/mL
